Structures can show the parent of a compound that is named as a salt.
Record type: Ki measurement. Applies to: metabotropic glutamate receptor subtype 5 (Rattus norvegicus (Rat))
Parameter: Ki (nM)

Guide cases for Ki, answers given:
# Molecule, Parameter, Readout number
records = [
    ("Cc1nc(C#Cc2ccc(-c3ccccc3CO)nc2)cs1", "Ki", 2),
    ("Cc1nc(C#Cc2ccc(OC(C)C)nc2)cs1 [Example 26, trifluoroacetate]", "Ki", 2),
    ("CSc1ccccc1-c1ncc(C#Cc2csc(C)n2)cn1", "Ki", 7.5),
    ("Cc1nc(C#Cc2cnc(N3CCCC3)nc2)cs1", "Ki", 13),
    ("COc1ccc(F)cc1-c1ccc(C#Cc2csc(C)n2)cn1", "Ki", 1.2),
    ("Cc1nc(C#Cc2ccc(-c3cc(F)ccc3C)nc2)cs1 [Example 12, trifluoroacetate]", "Ki", 1.1),
    ("Cc1nc(C#Cc2cnc(N3CCCCCC3)nc2)cs1", "Ki", 3),
    ("Cc1nc(C#Cc2cncc(-c3cccc(C#N)c3)c2)cs1", "Ki", 1),
]

1: Cc1nc(C#Cc2cnc(NC(C)(C)C)nc2)cs1 [Example 105]
2: Cc1nc(C#Cc2ccc(C3CC4CCC3C4)nc2)cs1 (stereo not shown)
Compare reported Ki values for 1 and 2 . Which is lower? Write the label of whichever entry you select.
1
(1: 1 nM, 2: 2 nM)

---

- Measured target: hmGluR5a receptor (Homo sapiens (Human))
- Protocol summary: Calcium Flux Assay
- Run parameters: hmGluR5a/L38-20 cells, glutamate-evoked [Ca2+]i
pIC50: −log10 of the molar value. Counter-ions that a name gives are not always drawn.
Parameter: pIC50

Guide cases for pIC50, answers given:
# Compound, pIC50
records = [
    ("Cc1cccc(-c2ccc(C#Cc3csc(C)n3)cn2)c1 [Example 52]", 8.10),
    ("Cc1nc(C#Cc2ccc(OC(C)(C)C)nc2)cs1 [Example 27]", 8.85),
    ("Cc1nc(C#Cc2ccc(OC(C)C)nc2)cs1 [Example 26, trifluoroacetate]", 10.00),
    ("CCC(C)Nc1ncc(C#Cc2csc(C)n2)cn1 (stereo not shown) [Example 94]", 8.05),
    ("Cc1nc(C#Cc2ccc(-c3cc(C#N)ccc3F)nc2)cs1 [Example 48]", 8.05),
    ("Cc1nc(C#Cc2ccc(-c3cccc(C)c3C)nc2)cs1 [Example 63]", 8.22),
    ("COc1c(F)cc(F)cc1-c1ccc(C#Cc2csc(C)n2)cn1 [Example 10, trifluoroacetate]", 9.15),
    ("COc1ccc(C)cc1-c1ccc(C#Cc2csc(C)n2)cn1 [Example 47]", 7.96),
]

1: Cc1nc(C#Cc2ccc(N3CCSCC3)nc2)cs1 [Example 40]
2: Cc1nc(C#Cc2cnc(-c3ccccc3Cl)nc2)cs1 [Example 15]
Which numeric pIC50 is bigger, that of 1 or that of 2 ? Write the label of whichever entry you select.
2

---

- Measured target: hmGluR5a receptor (Homo sapiens (Human), UniProt P41594)
- Sequence (P41594 other isoform, or with tags, fused parts or gaps): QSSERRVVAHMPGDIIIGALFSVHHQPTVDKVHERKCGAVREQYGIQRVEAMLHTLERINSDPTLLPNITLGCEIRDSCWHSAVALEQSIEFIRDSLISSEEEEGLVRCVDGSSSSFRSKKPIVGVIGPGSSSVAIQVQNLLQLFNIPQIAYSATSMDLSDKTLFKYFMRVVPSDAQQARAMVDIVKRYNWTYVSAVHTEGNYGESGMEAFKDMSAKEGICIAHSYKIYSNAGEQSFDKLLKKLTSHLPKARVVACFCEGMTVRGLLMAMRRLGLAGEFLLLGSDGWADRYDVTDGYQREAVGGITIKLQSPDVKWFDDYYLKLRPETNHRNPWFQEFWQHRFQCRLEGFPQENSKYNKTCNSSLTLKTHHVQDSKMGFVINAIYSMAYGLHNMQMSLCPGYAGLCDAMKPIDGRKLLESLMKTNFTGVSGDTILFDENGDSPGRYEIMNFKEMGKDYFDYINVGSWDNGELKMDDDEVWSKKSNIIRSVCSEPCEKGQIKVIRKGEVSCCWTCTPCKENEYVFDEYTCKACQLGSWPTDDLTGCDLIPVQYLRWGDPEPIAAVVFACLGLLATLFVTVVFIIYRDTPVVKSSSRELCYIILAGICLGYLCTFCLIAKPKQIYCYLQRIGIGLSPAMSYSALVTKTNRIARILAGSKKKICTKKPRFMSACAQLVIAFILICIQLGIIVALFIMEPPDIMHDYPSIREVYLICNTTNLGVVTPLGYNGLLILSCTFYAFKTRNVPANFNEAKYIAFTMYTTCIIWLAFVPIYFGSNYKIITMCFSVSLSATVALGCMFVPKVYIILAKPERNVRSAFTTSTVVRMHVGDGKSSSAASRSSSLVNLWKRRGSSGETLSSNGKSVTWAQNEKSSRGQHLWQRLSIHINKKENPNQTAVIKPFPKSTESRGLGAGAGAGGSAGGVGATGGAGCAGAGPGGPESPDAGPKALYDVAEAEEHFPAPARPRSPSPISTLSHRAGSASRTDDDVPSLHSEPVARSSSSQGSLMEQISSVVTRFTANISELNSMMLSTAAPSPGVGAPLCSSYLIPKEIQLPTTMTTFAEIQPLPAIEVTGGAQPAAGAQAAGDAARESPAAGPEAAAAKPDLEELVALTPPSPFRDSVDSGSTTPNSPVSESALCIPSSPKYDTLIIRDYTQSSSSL
- Protocol summary: Calcium Flux Assay
- Run parameters: hmGluR5a/L38-20 cells, glutamate-evoked [Ca2+]i
Parameter: IC50 (nM)

Guide cases for IC50, answers given:
# Compound, IC50 / nM
data = [
    ("CCCN(C)c1ccc(C#Cc2csc(C)n2)cn1", 2),
    ("Cc1nc(C#Cc2cncc(-c3ccccc3CO)c2)cs1", 2),
]

1: Cc1nc(C#Cc2ccc(N3CCC(F)CC3)nc2)cs1
2: CSc1ccccc1-c1ncc(C#Cc2csc(C)n2)cn1
Which numeric IC50 is bigger, that of 1 or that of 2 ? Write the label of whichever entry you select.
1
(1: 2 nM, 2: 0.8 nM)
